Read-out: Matrix Metallopeptidase 9 (MMP9), MMP9 (gene 4318)
Experiment: BSK_KF3CT_MMP9: BioMAP Diversity Plus: KF3CT Assay for Matrix Metallopeptidase 9 (MMP9) Biomarker Activity (AID 2283074)
Conditions: primary human keratinocytes with fibroblasts; actives raise or lower the signal
Active and inactive are the calls of the source. Rule for the calls: active = hit-call score of the fitted dose curve at least 0.9, where 1 is the maximum; inactive = score below 0.9.
readout: outcome

Record excerpt, results attached:
[
  {
    "compound": "O=C(O)C(F)(F)OC(F)(F)C(F)(F)OC(F)(F)C(=O)O",
    "value reported": "inactive"
  },
  {
    "compound": "N#Cc1cc([N+](=O)[O-])ccc1N",
    "value reported": "inactive"
  },
  {
    "compound": "O=[N+]([O-])c1ccccc1",
    "value reported": "inactive"
  },
  {
    "compound": "COP(N)(=S)OC",
    "value reported": "inactive"
  },
  {
    "compound": "O=C(O)C1C(C(=O)O)C2(Cl)C(Cl)=C(Cl)C1(Cl)C2(Cl)Cl (stereo unspecified)",
    "value reported": "inactive"
  }
]

Q. Reported outcome, compound Nc1cc2c3c(c1)C(c1ccccc1)=N[C@@H](NC(=O)c1cccnc1)C(=O)N3CC2 : ____
A. inactive
